MEASUREMENT PROTOCOL: in vivo
EXPERIMENTAL CONDITIONS: mouse, iv, 1 mg/kg

SMILES: CN1C(=O)N(c2cc(Cl)cc(Cl)c2)C(=O)[C@]12CN(Cc1cc(C(=O)O)cs1)C[C@H]2c1ccc(C#N)cc1
MRT: 4.4 h

====

MEASUREMENT PROTOCOL: in vivo
EXPERIMENTAL CONDITIONS: dog, iv, 5 mg/kg

SMILES: CN1C(=O)N(c2cc(Cl)cc(Cl)c2)C(=O)[C@]12CN(Cc1cc(C(=O)O)cs1)C[C@H]2c1ccc(C#N)cc1
MRT / h: 3.3
